Hello, the source for this data is patent US6410735B1, in case you need it.

measurement target: α1A-adrenoceptor (Rattus norvegicus)
Construct: from tissue; host or cells: rat submaxillary gland membranes
Sequence (P43140 whole entry): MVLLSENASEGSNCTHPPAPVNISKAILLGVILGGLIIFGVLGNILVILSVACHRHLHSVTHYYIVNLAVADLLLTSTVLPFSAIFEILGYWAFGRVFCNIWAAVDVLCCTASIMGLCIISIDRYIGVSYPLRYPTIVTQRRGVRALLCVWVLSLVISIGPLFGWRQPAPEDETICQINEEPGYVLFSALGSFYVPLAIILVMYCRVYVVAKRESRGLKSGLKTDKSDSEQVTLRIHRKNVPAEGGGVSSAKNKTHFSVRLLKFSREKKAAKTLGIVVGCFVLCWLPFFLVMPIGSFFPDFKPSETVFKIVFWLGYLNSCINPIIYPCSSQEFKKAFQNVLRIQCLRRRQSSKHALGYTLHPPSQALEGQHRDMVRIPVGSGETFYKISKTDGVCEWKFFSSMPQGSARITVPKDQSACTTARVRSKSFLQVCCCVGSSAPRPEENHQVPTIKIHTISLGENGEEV
test details: Receptor binding assay, [3H]prazosin, rat submaxillary membranes
cond: rat submaxillary membranes, 0.5 nM [3H]prazosin; read-out: RBA (Ki nM) α1A
Experimental: Receptor binding assays, (RBA's) were performed for native α1-adrenoceptors. Rat submaxillary and rat liver membrane preparations were used to assess the affinity for α1A and α1B subtypes, respectively. […] Filters were dried and bound radioactivity counted. Non-specific binding was determined in the presence of 0.3 mM prazosin.
Quick reference for Ki among some compounds

So what does the record say about Ki for COc1cccc(N2CCN(CCCN3C(=O)CCC3=O)CC2)c1 [Compound 11] ?
> 2500 nM

So what does the record say about Ki for COc1ccc(N2CCN(CCCN3C(=O)CCC3=O)CC2)cc1 [Compound 12] ?
> 2500 nM

Consider the additional compound presented here.
So what does the record say about Ki for O=C1CCCC(=O)N1CCCN1CCN(c2ncccn2)CC1 [Compound 22] ?
> 2500 nM
